target: Quadruplex DNA; test: Displacement of thiazole orange from human c-Kit2 G-quadruplex DNA after 5 mins in presence of KCl by fluorescence assay; format: nucleic-acid assay
assay_readout: DC50 (µM)
Report the value in µM with no unit label.

Examples with their reported DC50 follow.
{"mol_smiles": "CN1CCN(CCCCn2c3ccc(-c4nc5cc(N6CCN(CCO)CC6)ccc5[nH]4)cc3c3cc(-c4nc5cc(N6CCN(CCO)CC6)ccc5[nH]4)ccc32)CC1", "assayed_target": "Quadruplex DNA", "unit_label": "µM", "DC50": 0.66}
{"mol_smiles": "CN(C)CCCCn1c2ccc(-c3nc4ccc(N5CCN(CCO)CC5)cc4[nH]3)cc2c2cc(-c3nc4ccc(N5CCN(CCO)CC5)cc4[nH]3)ccc21", "assayed_target": "Quadruplex DNA", "unit_label": "µM", "DC50": 0.65}
{"mol_smiles": "CN1CCN(CCCCn2c3ccc(-c4nc5cc(N6CCOCC6)ccc5[nH]4)cc3c3cc(-c4nc5cc(N6CCOCC6)ccc5[nH]4)ccc32)CC1", "assayed_target": "Quadruplex DNA", "unit_label": "µM", "DC50": 0.74}
{"mol_smiles": "C[n+]1ccc(-c2c3nc(c(-c4cc[n+](C)cc4)c4ccc([nH]4)c(-c4cc[n+](C)cc4)c4nc(c(-c5cc[n+](C)cc5)c5ccc2[nH]5)C=C4)C=C3)cc1", "assayed_target": "Quadruplex DNA", "unit_label": "µM", "DC50": 0.35}

// switching to the query compound
Quickly give me recorded DC50 for CCn1c2ccc(-c3nc4ccc(N5CCN(CCO)CC5)cc4[nH]3)cc2c2cc(-c3nc4ccc(N5CCN(CCO)CC5)cc4[nH]3)ccc21
1.34

----------
tested on: Quadruplex DNA; test: Binding affinity to human c-Kit2 G-quadruplex DNA assessed as stabilization of parallel stranded topology after 5 mins in presence of KCl by CD spectroscopic method; format: nucleic-acid assay
Active and inactive are the calls of the source. No cut-off for these calls is given here.
assay_readout: Activity

Past entries and their recorded results:
{"mol_smiles": "C[N+]1(CCCCN2CCOCC2)CCN(CCCCn2c3ccc(-c4nc5ccc(N6CCOCC6)cc5[nH]4)cc3c3cc(-c4nc5ccc(N6CCOCC6)cc5[nH]4)ccc32)CC1", "assayed_target": "Quadruplex DNA", "assay_readout": "Activity", "recorded_value": "Active"}
{"mol_smiles": "CN1CCN(CCCCn2c3ccc(-c4nc5cc(N6CCN(CCO)CC6)ccc5[nH]4)cc3c3cc(-c4nc5cc(N6CCN(CCO)CC6)ccc5[nH]4)ccc32)CC1", "assayed_target": "Quadruplex DNA", "assay_readout": "Activity", "recorded_value": "Active"}
{"mol_smiles": "CN1CCN(CCCCn2c3ccc(-c4nc5cc(N6CCOCC6)ccc5[nH]4)cc3c3cc(-c4nc5cc(N6CCOCC6)ccc5[nH]4)ccc32)CC1", "assayed_target": "Quadruplex DNA", "assay_readout": "Activity", "recorded_value": "Active"}
{"mol_smiles": "CN(C)CCCCn1c2ccc(-c3nc4ccc(N5CCN(CCO)CC5)cc4[nH]3)cc2c2cc(-c3nc4ccc(N5CCN(CCO)CC5)cc4[nH]3)ccc21", "assayed_target": "Quadruplex DNA", "assay_readout": "Activity", "recorded_value": "Active"}

// next item, Activity requested
Name the recorded Activity of the compound listed here: CCn1c2ccc(-c3nc4ccc(N5CCN(CCO)CC5)cc4[nH]3)cc2c2cc(-c3nc4ccc(N5CCN(CCO)CC5)cc4[nH]3)ccc21
Active

The values you see were collected from ChEMBL document CHEMBL4196021.
